MEASUREMENT_NAME: melting point (°C)

Some solved cases for reference:
COMPOUND | melting point / °C
CC(=O)CN1CCC(CCN2CC=C(c3ccccc3C)CC2)CC1.Cl.Cl | 292
CCOCC(=O)N[C@H]1CC[C@H](CCN2CCC(c3cccc(C(F)(F)F)c3)CC2)CC1 | 84
CC(=O)CN1CCC(CCN2CCN(c3ccc(Cl)c(Cl)c3)CC2)CC1 | 114

I: N#CCCCC(=O)N[C@H]1CC[C@H](CCN2CCN(c3cc(Cl)ccc3Cl)CC2)CC1
II: CC(=O)CN1CCC(CCN2CCN(c3cc(F)cc(C(F)(F)F)c3)CC2)CC1.Cl.Cl
Query :: I would appreciate it if you could say which entry, I or II , has the lower melting point value. Kindly give the label for the entry you pick.
Result :: I
(I: 179 °C, II: 295 °C)
